- Protocol Notes: reversal of MRP1-mediated doxorubicin resistance, pilot screen, H69AR cells, doxorubicin co-treatment (AID 601)
- Condition Parameters: H69AR cells + 2 uM doxorubicin, CellTiter-Glo, 72 h; measured here: viability with 2 uM doxorubicin; at 10 µM; stronger effect = lower value
The label is true for viability below 90% and false for viability equal to or exceeding 90%.

Below, 3 compounds whose answers are already recorded.
INSERT INTO results (compound, class_assignment) VALUES
  ('Nc1nnc(-c2cn(-c3ccccc3)nc2-c2ccccc2)o1', 'true'),
  ('O=C(CCN1C(=O)C2C3C=CC(C3)C2C1=O)NCCc1ccccc1Cl (stereo unspecified)', 'true'),
  ('COCCCN(C(C)=O)c1nc(-c2ccccc2)cs1', 'true');

# evaluate next
Req: Below 90% on viability? Entry CN(CC(=O)Nc1ccc2c(c1)OCCO2)S(=O)(=O)c1ccc(Br)s1
Resp: false

----------
Entries annotated with measured viability
- Protocol Notes: reversal of MRP1-mediated doxorubicin resistance, pilot screen, H69AR cells, doxorubicin co-treatment (AID 601)
- Condition Parameters: H69AR cells, CellTiter-Glo, 72 h; compound alone cytotoxicity; at 10 µM
# number only, unit % dropped from output

Use the examples below as a reference point.
INSERT INTO results (compound, endpoint, result_units, value_measured) VALUES
  ('[N-]=[N+]=CC(=O)CC(c1ccccc1)N1C(=O)c2ccccc2C1=O (stereo unspecified)', 'viability', '%', 103),
  ('CS(=O)(=O)c1ccc2nc(NC(=O)c3cccs3)sc2c1', 'viability', '%', 45);

Next compound, please.
Req: # viability lookup, item Cc1cccc(-c2nnn(CC/C(N)=N/O)n2)c1
Resp: 104

----------
- Protocol Notes: growth inhibitors of H69AR lung tumor, primary screen, human, duplicate replicates (AID 580);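 note: 100% = mean luminescence of untreated wells and 0% = no signal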
- Condition Parameters: H69AR lung tumor cells viability, ATP luminescence, 72 h; at 10 µM; stronger effect = lower value
The label is Met for viability below 90% and Not met for viability equal to or exceeding 90%.

Below, 5 molecules whose answers are already recorded.
INSERT INTO measurements (molecule, class_assignment) VALUES
  ('COc1ccc(-n2c(Cc3cccn3C)nnc2SCC(=O)NCC2CCCO2)cc1 (configuration not stated)', 'Not met'),
  ('CC1=C(C(=O)OC2CCCCC2)C(c2cccnc2)n2ncnc2N1 (configuration not stated)', 'Met'),
  ('Cc1cc(C(=O)CSCc2nnc3n(CCC(C)C)c(=O)c4ccccc4n23)c(C)n1C', 'Met'),
  ('O=c1c2nnn(Cc3ccc(Cl)cc3)c2ncn1Cc1ccc(F)cc1', 'Not met'),
  ('c1ccc(Oc2ccc(-n3cnnn3)cc2)cc1', 'Not met');

Req: Below 90% on viability? Entry COc1cc(OC)cc(-c2nnc(Nc3nc4c(F)cccc4s3)o2)c1
Resp: Met

Req: Same thing, different molecule: CC(NCc1ccco1)C(=O)N1CCc2ccccc2C1 (configuration not stated)
Resp: Not met

Req: Same thing, different molecule: CCNC(=O)CC(=O)Nc1ccccc1C(=O)O
Resp: Not met

----------
- Protocol Notes: reversal of MRP1-mediated doxorubicin resistance, pilot screen, H69AR cells, doxorubicin co-treatment (AID 601)
- Condition Parameters: H69AR cells + 2 uM doxorubicin, CellTiter-Glo, 72 h; at 10 µM; stronger effect = higher value
Entries annotated with measured differential viability (reversal)
# number only, unit % dropped from output

Use the examples below as a reference point.
INSERT INTO assay_data (compound, endpoint, result_units, value_measured) VALUES
  ('Cc1c(C(=O)NCc2cccnc2)oc2ccc(S(=O)(=O)N3CCCCC3)cc12', 'differential viability (reversal)', '%', -20.9),
  ('CCCn1c2c(c(O)c(C(=O)Nc3ccc(C)cn3)c1=O)CCCC2', 'differential viability (reversal)', '%', -9.88),
  ('O=C(Nc1ccccc1-c1ccccc1)NC1CCN(CC(=O)N2CCOCC2)CC1', 'differential viability (reversal)', '%', 7.87);

Req: # differential viability (reversal) lookup, item COc1ccc2cnn(-c3ccccc3)c(=O)c2c1OC
Resp: 18.2

Req: Same thing, different compound: COc1ccc(C2C(C(=O)c3sc(C)nc3C)=C(O)C(=O)N2CCN2CCOCC2)cc1 (stereo not drawn)
Resp: 5.41

Req: Same thing, different compound: COC(=O)c1c(C#N)c(N)nc2c1CCC2
Resp: 0.57

Req: Same thing, different compound: COc1ccc(OC)c(N(CC(=O)N2CCN(c3cc(Cl)ccc3C)CC2)S(C)(=O)=O)c1
Resp: 3.83

Req: Same thing, different compound: Cc1ccccc1C(=O)Nc1c(C(=O)N2CCCC2)cnn1-c1ccccc1
Resp: 9.86

----------
- Protocol Notes: growth inhibitors of H69AR lung tumor, primary screen, human, duplicate replicates (AID 580);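 note: 100% = mean luminescence of untreated wells and 0% = no signal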
- Condition Parameters: H69AR lung tumor cells viability, ATP luminescence, 72 h; at 10 µM
Activity calls are given as the source filed them.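 The calls were made as follows: active = viability at or under a set limit in both replicates, limit being median viability minus 3 SD (cut at about 48% in these data, passing the limit was not always enough); inconclusive = at or under the limit in just one replicate; inactive = at or above the limit in both replicates.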
Give your call using only these classes: yes (1) = active, no (0) = inactive

Below, 5 compounds whose answers are already recorded.
INSERT INTO assay_data (compound, class_assignment) VALUES
  ('Nc1sccc1C(=O)c1ccc(Cl)cc1', 'no (0)'),
  ('CCOC(=O)c1ccccc1NC(=O)CSc1nc2c(c(=O)n(C)c(=O)n2C)n1C', 'no (0)'),
  ('COCCSc1ccccc1C(=O)Nc1cc(C)on1', 'no (0)'),
  ('COc1ccc(-c2noc(CCCC(=O)O)n2)cc1', 'no (0)'),
  ('COc1ccc(N2CCN(C(=O)CSc3nnc4n3C(C)(C)Cc3ccccc3-4)CC2)cc1', 'no (0)');

Req: Name the outcome recorded for CCN1CCN(CCCNC(=O)c2cn(CCOC)c(=O)c3c2c2ccccc2n3C)CC1 in the assay.
Resp: no (0)

Req: Same thing, different compound: COc1ccc2[nH]c(=O)c(CN(Cc3cccs3)S(=O)(=O)c3cccc4nsnc34)cc2c1
Resp: yes (1)

Req: Same thing, different compound: COc1ccc(C(=O)Nc2ccc(C)cn2)c(OC)c1
Resp: no (0)

Req: Same thing, different compound: CN1CCN(C(c2cccc(C(F)(F)F)c2)c2nnnn2C(C)(C)C)CC1 (stereo unspecified)
Resp: no (0)

Req: Same thing, different compound: Cn1c(=O)oc2cc(S(=O)(=O)NCCC(=O)N3CCc4ccccc4C3)ccc21
Resp: no (0)

Req: Same thing, different compound: O=C(Nc1cccc(F)c1)c1cccc(S(=O)(=O)N2CCOCC2)c1
Resp: no (0)

----------
Entries annotated with measured viability
- Protocol Notes: reducers of endogenous Her2 protein level, primary screen, SKBR3 breast tumor cells, AlphaScreen, ATP viability (AID 461);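 note: percent of carrier control wells set as 100% viability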
- Condition Parameters: 18-24 h, measured here: SKBR3 viability, ATP luminescence, at 10 µM
# number only, unit % dropped from output

Use the examples below as a reference point.
INSERT INTO measurements (compound, endpoint, value_measured) VALUES
  ('CC(=O)N1CCc2cc(S(=O)(=O)NC(CC(C)C)C(=O)N3CCn4c3nc3ccccc34)ccc21 (stereo unspecified)', 'viability', 88.5),
  ('Cc1cc(=O)n(C)c(=O)n1CCCCCN1CCCC1', 'viability', 96.5),
  ('O=S(NCc1ccco1)C12CC3CC(CC(C3)C1)C2 (stereo unspecified)', 'viability', 104),
  ('COc1ccc(/C(O)=C2/C(=O)C(=O)N(CCN(C)C)C2c2ccccn2)cc1OC (stereo unspecified)', 'viability', 92.5),
  ('CC(C)(C)N(Cc1cc2ccccc2[nH]c1=O)C(=O)C1CCCCC1', 'viability', 104),
  ('CCSc1nnc(NC(=O)C(CC)(C(F)(F)F)C(F)(F)F)s1', 'viability', 79.5),
  ('Cc1nc2ccccc2c(=O)n1/N=C/c1ccncc1', 'viability', 95),
  ('CN1CCCN(C(=O)c2cc(=O)[nH]c3ccccc23)c2nc3ccccc3nc21', 'viability', 114),
  ('CCn1ncc(Cl)c1C(=O)Nc1ccncc1', 'viability', 114),
  ('CCOc1ccc(S(=O)(=O)NCC2CCCO2)c2cccnc12 (stereo unspecified)', 'viability', 99);

Next compound, please.
Req: # viability lookup, item Cc1cc(Nc2ccc(C(=O)O)cc2)n2nc(C)nc2n1
Resp: 101

----------
- Protocol Notes: growth suppression of yeast trafficking mutant, preliminary HTS, modulators of trafficking downstream of Golgi apparatus project, 1536-format plate, OD 615 nm (AID 637)
- Condition Parameters: yeast transport mutant growth, absorbance 615 nm, 18 h; stronger effect = higher value
Endpoint: inhibition (%)
# number only, unit % dropped from output

Use the examples below as a reference point.
INSERT INTO results (compound, endpoint, result_units, value_measured) VALUES
  ('COc1ccc2oc(=O)c(C(=O)N3CCN(c4ccccc4F)CC3)cc2c1', 'inhibition', '%', -3.65),
  ('CCn1cc(C(=O)O)c(=O)c2cc(F)c(N3CCN(C(=O)Nc4ccccc4)CC3)cc21', 'inhibition', '%', 0),
  ('CC(=O)N1CCC(N(C(=O)Nc2ccc(C)c(C)c2)C2CCCC2)CC1', 'inhibition', '%', -5.33),
  ('COc1ccc(C)cc1NC(=O)CN(Cc1nnc(-c2ccc(Cl)cc2)o1)C1CCCC1', 'inhibition', '%', -2.95),
  ('Cc1ccc2c(c1)NC(=O)C(CC(=O)NCCN(CC(C)C)CC(C)C)O2 (stereo not given)', 'inhibition', '%', -3.28);

Req: # inhibition lookup, item COc1ccc(OC)c(C2C(C(=O)Nc3cccnc3)=C(C)NC3=C2C(=O)CCC3)c1 (stereo not given)
Resp: 1.8

Req: Same thing, different compound: COc1ccc(OC)c(NC(=O)CS(=O)(=O)Cc2nc(-c3ccccc3C)oc2C)c1
Resp: 6.83

Req: Same thing, different compound: N=c1c(C(=O)NCc2ccc(F)cc2)cc2c(=O)n3ccccc3nc2n1CCCN1CCOCC1
Resp: 10.8

Req: Same thing, different compound: CCOc1ccc(N(C(C)=O)C2C=CS(=O)(=O)C2)cc1 (stereo not given)
Resp: 0.33

Req: Same thing, different compound: COc1ccc(-c2cc(O)cc(O)c2)cc1
Resp: 4.26
